measured on: T1, human APJ receptor (human, UniProt P35414 1-380)
T1 sequence (looked up): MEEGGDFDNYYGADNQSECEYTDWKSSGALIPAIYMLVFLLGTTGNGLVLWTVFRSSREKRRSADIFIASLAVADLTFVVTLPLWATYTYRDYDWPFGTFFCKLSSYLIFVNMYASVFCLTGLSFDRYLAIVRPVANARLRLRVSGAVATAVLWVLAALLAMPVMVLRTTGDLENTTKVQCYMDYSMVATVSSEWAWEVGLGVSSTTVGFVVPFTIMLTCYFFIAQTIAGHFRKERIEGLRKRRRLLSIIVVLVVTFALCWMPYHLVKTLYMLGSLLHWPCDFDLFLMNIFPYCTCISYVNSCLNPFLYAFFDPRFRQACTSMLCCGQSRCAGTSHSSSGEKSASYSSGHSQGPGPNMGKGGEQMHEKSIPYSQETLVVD
assay summary: cell-based or functional assay
Starred links: 1 amine or outer side, 2 acyl side, 3 side chain; linkers in the order of their positions; H or OH if unused. Non-standard residues stand in square brackets, D forms with d. Primed or numbered codes have the meaning given here. *: point of attachment. AC4Abu = α-carboxy-4-aminobutyric acid, O=C(C(CCN[*:1])C(=O)[*:3])[*:2]; Oic = O=C(O)[C@@H]1C[C@@H]2CCCC[C@@H]2N1; Phe(4-Cl) = N[C@@H](Cc1ccc(Cl)cc1)C(=O)O; NMeR = CN[C@@H](CCCNC(=N)N)C(=O)O; Palmitoyl = CCCCCCCCCCCCCCCC(=O)*; hArg = N=C(N)NCCCC[C@H](N)C(=O)O; Cha = N[C@@H](CC1CCCCC1)C(=O)O; αMeL = CC(C)C[C@](C)(N)C(=O)O; β3hP = O=C(O)C[C@@H]1CCCN1; Nle = CCCC[C@H](N)C(=O)O; Pip′ = not defined here; AEEA = NCCOCCOCC(=O)O; Aib = CC(C)(N)C(=O)O; NPrGly = CCCNCC(=O)O; Sar = CNCC(=O)O
# if measured EC50 Human APJ Receptor < 0.2 nM: Yes  # else: No

Study these solved cases before continuing.
binder: RLIEDICLPRWGCLWXXQRPRLSHKGPXPF ({Acetyl-NH}RLIEDICLPRWGCLW[Aeea][Aeea]QRP[NMeArg]LSHKGP[Nle]P[4-Cl-F]{COOH}) [SEQ ID NO: 91]
group label: Yes
--
binder: Ac-[hArg]Q[hArg]P[NMeR][Cha]SHKG[Oic][Nle]P[Phe(4-Cl)]-OH [SEQ ID NO: 60]
group label: No
--
binder: XXXXQRPRLSHKGPXPF ({TDA}[AC4Abu][AC4Abu][Aeea][Aeea]QRP[NMeArg]LSHKGP[Nle]P[4-Cl-F]{COOH}) [SEQ ID NO: 399]
group label: Yes
--
binder: Palmitoyl-[AC4Abu][AEEA][AEEA][dQ]RP[NMeR][Cha]S[NPrGly]KG[Pip′][Nle][Aib][Phe(4-Cl)]-OH [SEQ ID NO: 644]
group label: No

Hello, is EC50 Human APJ Receptor of the following binder strictly smaller than 0.2 nM? Palmitoyl-[AC4Abu][AEEA][AEEA][dQ]RP[NMeR][αMeL]SHK[Sar][Oic][Nle][β3hP][Phe(4-Cl)]-OH [SEQ ID NO: 641]
No
